System: NCI-H1373
Assay: CellTiter Glo 72 h, KRAS G12C mutant cell line NCI-H1373
Type: cell-based
Conditions: Homo sapiens, NCI-H1373, Lung
REPORTED PROPERTY: IC50 (µM)

* C[C@@H]1OCC2(CCN(c3cnc(Sc4ccnc(N)c4Cl)c(N)n3)CC2)[C@@H]1N | 0.156

---

System: HCC44
Assay: CellTiter Glo 72 h, KRAS G12C mutant cell line HCC44
Format: cell-based
Details: Homo sapiens, HCC44, Lung
REPORTED PROPERTY: IC50 (µM)

* C[C@@H]1OCC2(CCN(c3cnc(Sc4ccnc(N)c4Cl)c(N)n3)CC2)[C@@H]1N [TNO155] | 0.0485
